The measured values listed here are drawn from paper PMC5867665.

- System: PDAC PANC-1 cells
- protocol_description: 96 h SRB growth inhibition assay, PANC-1
- Type: cell-based
- conditions: Homo sapiens
readout: pIC50
One number for each entry, as −log10 of the molar value.

The value of pIC50 measured for the molecule CN1CCN(CCCNc2cc3c4c(c(NCCCN5CCN(C)CC5)cc5c4c2C(=O)N(CCCN2CCOCC2)C5=O)C(=O)N(CCCN2CCOCC2)C3=O)CC1 [MM41, reference compound] turned out to be 8.52
